Target Desc: androgen receptor (AdEasy+rAR, COS-7 cells) (Rattus norvegicus)
Construct: expressed in transfected cells; host or cells: COS-7 cells transduced with adenovirus AdEasy+rAR
Experiment Description: COS-7 Whole-Cell Androgen Receptor Binding Assay, Adenovirus Transduction
Settings: concentration of 3000 nM
Protocol: COS-7 cells were plated in 96-well plates at 20,000 cells per well, in a solution of DMEM/F12 (GIBCO) containing 10% (v/v) charcoal-treated fetal bovine serum (Hyclone) and lacking phenol red. […] To each well was then added 50 μL of 0.5% (v/v) Triton X-100 (Sigma) in 1× PBS and the plates placed on a rotary shaker for 5 min. […] To each well was then added 0.2 mL of Microscint-20 (Packard) and the wells counted on a TopCount (Packard). […]
Please use MET whenever inhibition at 3 µM is not below 80%, and NOT MET whenever it is.

- Molecule: "CCCCSCC(C)(O)c1cc2cc([N+](=O)[O-])c(C(F)(F)F)cc2[nH]1 (stereo not drawn) [Compound 200]"
  Class Assignment: "MET"
- Molecule: "CSCC(C)(O)c1cc2cc([N+](=O)[O-])c(C(F)(F)F)cc2[nH]1 (racemic) [Compound 139]"
  Class Assignment: "MET"
- Molecule: "CC(O)(CSCc1cccs1)c1cc2cc([N+](=O)[O-])c(C(F)(F)F)cc2[nH]1 (stereo not drawn) [Compound 197]"
  Class Assignment: "MET"
- Molecule: "CC(O)(CSc1ccc(C(=O)O)cc1)c1cc2cc(Cl)c(C(F)(F)F)cc2[nH]1 (stereo not drawn) [Compound 133]"
  Class Assignment: "NOT MET"

Q. Reported inhibition at 3 µM reaches at least 80% for CCS(=O)(=O)CC(C)(O)c1cc2cc([N+](=O)[O-])c(C(F)(F)F)cc2[nH]1 (stereo not drawn) [Compound 143] ?
A. NOT MET

* * *

Target Desc: androgen receptor (AdEasy+rAR, COS-7 cells) (Rattus norvegicus)
Construct: expressed in transfected cells; host or cells: COS-7 cells transduced with adenovirus AdEasy+rAR
Experiment Description: COS-7 Whole-Cell Androgen Receptor Binding Assay, Adenovirus Transduction
Settings: read-out: IC50 (nM), COS Binding
Method: COS-7 cells were plated in 96-well plates at 20,000 cells per well, in a solution of DMEM/F12 (GIBCO) containing 10% (v/v) charcoal-treated fetal bovine serum (Hyclone) and lacking phenol red. […] To each well was then added 50 μL of 0.5% (v/v) Triton X-100 (Sigma) in 1× PBS and the plates placed on a rotary shaker for 5 min. […] To each well was then added 0.2 mL of Microscint-20 (Packard) and the wells counted on a TopCount (Packard). […]
Readout Label: IC50

- Compound: "CCSCC(C)(O)c1cc2cc([N+](=O)[O-])c(C(F)(F)F)cc2n1S(C)(=O)=O (stereo not shown)"
  IC50: "> 3000 nM"

List the reported IC50 of each compound below.
1. COc1ccc(SCC(C)(O)c2cc3cc(Cl)c(C(F)(F)F)cc3[nH]2)cc1 (stereo not shown)
2. CC(O)(CSc1ccc([N+](=O)[O-])cc1)c1cc2cc(Cl)c(C(F)(F)F)cc2[nH]1 (stereo not shown)
3. CCC(O)(CS(=O)(=O)CC(F)(F)F)c1[nH]c2cc(C(F)(F)F)c([N+](=O)[O-])cc2c1Cl (stereo not shown)
4. CC(O)(CS(C)(=O)=O)c1cc2cc([N+](=O)[O-])c(C(F)(F)F)cc2[nH]1 (stereo not shown) [Compound 147]
5. CCSCC(C)(O)Cc1cc2cc([N+](=O)[O-])c(C(F)(F)F)cc2[nH]1 (stereo not shown)
6. O=[N+]([O-])c1cc2cc(C3(O)CCSCC3)[nH]c2cc1C(F)(F)F
7. CC(O)(CS(C)(=O)=O)c1cc2cc([N+](=O)[O-])c(C(F)(F)F)cc2[nH]1 (stereo not shown) [Compound 148]
8. CSCC(C)(O)c1cc2cc(Cl)c(C(F)(F)F)cc2[nH]1 (stereo not shown)

A.
1. > 1600 nM
2. > 1600 nM
3. 310 nM
4. > 3000 nM
5. > 3000 nM
6. > 1500 nM
7. > 2400 nM
8. 320 nM

List the reported IC50 of each compound below.
1. CSCC(C)(O)c1cc2cc(Cl)c(C(F)(F)F)cc2n1S(C)(=O)=O (stereo not shown)
2. CN(C)c1ccc(SCC(C)(O)c2cc3cc(Cl)c(C(F)(F)F)cc3[nH]2)cc1 (stereo not shown)
3. CCS(=O)(=O)CC(C)(O)c1cc2cc(C#N)c(C(F)(F)F)cc2[nH]1 (single isomer, unassigned)
4. CC(O)(CSC1CCCC1)c1cc2cc([N+](=O)[O-])c(C(F)(F)F)cc2[nH]1 (stereo not shown)
5. CC(O)(CSCC(F)(F)F)c1cc2cc([N+](=O)[O-])c(C(F)(F)F)cc2[nH]1 (stereo not shown) [Compound 171]

A.
1. > 10000 nM
2. > 3000 nM
3. 1580 nM
4. > 3000 nM
5. 145 nM

List the reported IC50 of each compound below.
1. CC(O)(CSCC(F)(F)F)c1[nH]c2cc(C(F)(F)F)c([N+](=O)[O-])cc2c1I (stereo not shown)
2. CCSCC(C)(OC)c1cc2cc(C#N)c(C(F)(F)F)cc2n1C (stereo not shown)

A.
> 600 nM
520 nM

* * *

Target Desc: androgen receptor (rat ventral prostate cytosol) (Rattus norvegicus)
Construct: from tissue; host or cells: ventral prostate cytosol of castrated male Sprague Dawley or Wistar rats
Experiment Description: Androgen Receptor Binding Using Rat Ventral Prostate Cytosol
Settings: read-out: IC50 (nM), Androgen Receptor Binding (Rat Cytosol)
Can you tell me IC50 for the items I'm about to list?
Give bare numbers, in nM.

Below are worked cases with known answers.
- Molecule: "Cc1ccc(CN2CCC(O)(c3cc4cc(Cl)c(C(F)(F)F)cc4[nH]3)CC2)cc1"
  IC50, nM: 4100
- Molecule: "CC(O)(CSc1ccccc1)c1cc2cc(Cl)c(C(F)(F)F)cc2[nH]1 (stereo not drawn)"
  IC50, nM: 300

Now examine the next entry.
Q. Give its IC50 value. Item: OC1(c2cc3cc(Cl)c(C(F)(F)F)cc3[nH]2)CCN(Cc2ccc(Cl)cc2)CC1
A. 4050

* * *

Target Desc: androgen receptor (AdEasy+rAR, L929 cells) (Rattus norvegicus, UniProt P15207)
Construct: expressed in transfected cells; host or cells: L929 cells transduced with adenovirus AdEasy+rAR
Sequence (P15207 1-902): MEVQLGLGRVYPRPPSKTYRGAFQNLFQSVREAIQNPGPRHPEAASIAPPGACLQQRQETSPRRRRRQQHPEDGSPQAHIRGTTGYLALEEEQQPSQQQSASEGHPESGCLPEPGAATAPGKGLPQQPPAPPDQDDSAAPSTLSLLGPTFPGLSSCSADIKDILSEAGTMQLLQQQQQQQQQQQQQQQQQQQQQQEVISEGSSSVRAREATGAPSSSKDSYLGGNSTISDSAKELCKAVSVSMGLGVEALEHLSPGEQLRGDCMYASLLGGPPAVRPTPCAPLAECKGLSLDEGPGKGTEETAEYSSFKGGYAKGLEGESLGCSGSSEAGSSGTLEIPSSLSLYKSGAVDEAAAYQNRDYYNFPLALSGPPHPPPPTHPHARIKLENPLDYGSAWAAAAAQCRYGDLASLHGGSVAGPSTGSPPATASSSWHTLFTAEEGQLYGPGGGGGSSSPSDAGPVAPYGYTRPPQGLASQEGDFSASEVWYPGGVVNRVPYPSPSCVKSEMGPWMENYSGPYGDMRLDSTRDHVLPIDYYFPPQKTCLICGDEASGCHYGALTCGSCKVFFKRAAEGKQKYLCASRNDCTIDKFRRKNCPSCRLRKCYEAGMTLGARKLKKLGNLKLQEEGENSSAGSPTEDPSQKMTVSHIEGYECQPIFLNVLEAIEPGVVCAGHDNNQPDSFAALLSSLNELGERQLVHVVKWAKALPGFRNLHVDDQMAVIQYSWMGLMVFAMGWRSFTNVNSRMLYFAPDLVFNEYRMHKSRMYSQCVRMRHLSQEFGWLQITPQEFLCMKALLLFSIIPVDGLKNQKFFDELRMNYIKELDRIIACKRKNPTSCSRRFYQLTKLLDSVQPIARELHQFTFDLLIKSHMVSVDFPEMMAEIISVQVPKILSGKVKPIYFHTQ
Experiment Description: L929 Androgen Receptor Functional Assay, Adenovirus Transduction
Format: cell-based
Settings: agonist testing, 3000 nM
Protocol: L929 cells were plated in 96-well plates at 20,000 cells per well, in DMEM/F12 (GIBCO) containing 10% (v/v) charcoal-treated fetal bovine serum (Hyclone) and lacking phenol red. […] To each well was added 100 μL of Steady-Glo luciferase assay substrate (Promega) and the plates were placed on a rotary shaker for 1 min. […] The contents of each well were then transferred to a white microtiter plate (Packard) and read on a Luminoskan Ascent (Thermo Lab Systems). […]
Readout Label: % Activity, L929 androgen receptor functional assay (%)
One number for each entry, in %.

Below are worked cases with known answers.
- Molecule: "CC(O)(CS(C)(=O)=O)c1cc2cc(Cl)c(C(F)(F)F)cc2n1S(C)(=O)=O (stereo not drawn) [Compound 137]"
  Unit Descriptor: "%"
  Observed: 0
- Molecule: "CSCC(C)(O)c1cc2cc(C#N)c(C(F)(F)F)cc2[nH]1 (stereo not drawn) [Compound 136]"
  Unit Descriptor: "%"
  Observed: 0
- Molecule: "CCSCC(O)(CC)c1cc2cc([N+](=O)[O-])c(C(F)(F)F)cc2[nH]1 (stereo not drawn) [Compound 169]"
  Unit Descriptor: "%"
  Observed: 2
- Molecule: "CCCSCC(C)(O)c1cc2cc([N+](=O)[O-])c(C(F)(F)F)cc2[nH]1 (stereo not drawn) [Compound 168]"
  Unit Descriptor: "%"
  Observed: 3
- Molecule: "CCSCC(C)(O)c1cc2cc(C#N)c(C(F)(F)F)cc2[nH]1 (stereo not drawn) [Compound 218]"
  Unit Descriptor: "%"
  Observed: 0

List the reported % Activity, L929 androgen receptor functional assay of each molecule below.
1. CCSCC(C)(OC)c1cc2cc(C#N)c(C(F)(F)F)cc2n1C (stereo not drawn) [Compound 235]
2. CSCCC(C)(O)c1cc2cc(Cl)c(C(F)(F)F)cc2[nH]1 (racemic) [Compound 51]
3. CC(O)(CSCc1ccccc1)c1cc2cc([N+](=O)[O-])c(C(F)(F)F)cc2[nH]1 (stereo not drawn) [Compound 160]
4. CC(O)(CS(=O)(=O)CC(F)(F)F)c1cc2cc([N+](=O)[O-])c(C(F)(F)F)cc2[nH]1 (racemic) [Compound 208]
5. COc1ccc(SCC(C)(O)c2cc3cc(Cl)c(C(F)(F)F)cc3n2S(C)(=O)=O)cc1 (racemic) [Compound 130]
6. CC(O)(CSc1ccc(C(=O)O)cc1)c1cc2cc(Cl)c(C(F)(F)F)cc2[nH]1 (stereo not drawn) [Compound 133]

A.
1: 3; 2: 2; 3: 1; 4: 1; 5: −5; 6: −4

Q. Give its % Activity, L929 androgen receptor functional assay value. Item: CCS(=O)(=O)CC(C)(O)c1cc2cc([N+](=O)[O-])c(C(F)(F)F)cc2[nH]1 (stereo not drawn) [Compound 143]
A. 0

Hello, the source for this data is patent US7282507B2, in case you need it.
